Let's go through some recorded pKi values for hCA I (Homo sapiens, UniProt P00915) together.
pKi: −log10 of the molar value.

compound.string: CC1(C)O[C@H]1COc1c2ccoc2cc2oc(=O)ccc12
pKi: 5.27
//
compound.string: COc1c2ccoc2cc2oc(=O)ccc12
pKi: 5.32

----------
pIC50: −log10 of the molar value.
Let's go through some recorded pIC50 values for hCA II (Homo sapiens) together.
observed.property: pIC50

compound.string: CC1(C)O[C@H]1COc1c2ccoc2cc2oc(=O)ccc12
observed.property: pIC50
reported.value: 5.28
//
compound.string: COc1c2ccoc2cc2oc(=O)ccc12
observed.property: pIC50
reported.value: 5.08
